System: Escherichia coli
Experiment: Antibacterial activity against Escherichia coli MTCC 119 at 1 x 10^-4 ug/ml after 24 hrs by disk diffusion assay
Assay type: functional
Settings: MTCC 119, 24 h, read-out: GI
The entries below come with measured inhibition of growth at 0.0001 µg/mL values attached.
Value expressed in %; do not type the unit.

Look over these answered cases.
{"MOLECULE": "O=c1c(C(=S)Nc2ccccc2)coc2cc(Cl)ccc12", "ENDPOINT UNIT": "%", "QUANTITATIVE RESULT": 87.6}
{"MOLECULE": "O=c1c(C2N=C(c3ccccc3)SS2)coc2ccc(F)cc12 (centres undefined)", "ENDPOINT UNIT": "%", "QUANTITATIVE RESULT": 80.9}
{"MOLECULE": "O=c1c(C(=S)Nc2ccccc2)coc2ccccc12", "ENDPOINT UNIT": "%", "QUANTITATIVE RESULT": 100}
{"MOLECULE": "O=c1c(C2N=C(c3ccccc3)SS2)coc2ccc(Cl)cc12 (centres undefined)", "ENDPOINT UNIT": "%", "QUANTITATIVE RESULT": 100}
{"MOLECULE": "Cc1ccc2occ(C3N=C(c4ccccc4)SS3)c(=O)c2c1 (centres undefined)", "ENDPOINT UNIT": "%", "QUANTITATIVE RESULT": 72.5}

State its inhibition of growth at 0.0001 µg/mL on Escherichia coli: O=c1c(C2N=C(c3ccccc3)SS2)coc2ccccc12 (centres undefined)
100

State its inhibition of growth at 0.0001 µg/mL on Escherichia coli: `O=c1c(C(=S)Nc2ccccc2)coc2cc(Cl)c(Cl)cc12`
100

State its inhibition of growth at 0.0001 µg/mL on Escherichia coli: O=c1c(C2N=C(c3ccccc3)SS2)coc2cc(Cl)c(F)cc12 (centres undefined)
30.5

State its inhibition of growth at 0.0001 µg/mL on Escherichia coli: `O=c1c(C(=S)Nc2ccccc2)coc2ccc(F)cc12`
100

These measurements were taken from ChEMBL document CHEMBL1153011.
